The measured values listed here are drawn from paper PMC5658359.

Item-by-item account of Ki
study target: human DCN1 (residues 58–259), N-terminal His6 tag (human, UniProt Q96GG9 58-259)
Sequence (Q96GG9 58-259): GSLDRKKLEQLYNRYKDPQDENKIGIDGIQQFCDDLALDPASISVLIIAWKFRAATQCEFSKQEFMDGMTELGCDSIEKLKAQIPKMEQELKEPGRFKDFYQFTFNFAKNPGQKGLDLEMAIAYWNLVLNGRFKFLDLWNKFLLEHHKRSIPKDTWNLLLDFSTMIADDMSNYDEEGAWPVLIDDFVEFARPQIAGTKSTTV
protocol text: FP
Where no end group is shown, it is not given here. [ ]: non-standard residue; d: D form. 5‑Cl‑benzothiazol‑2‑yl side chain = not defined here; Phe(3,5-F2) = N[C@@H](Cc1cc(F)cc(F)c1)C(=O)O; Phe(4-Cl) = N[C@@H](Cc1ccc(Cl)cc1)C(=O)O; hPhe = N[C@@H](CCc1ccccc1)C(=O)O
Write the numeric value and follow it with the unit.

The cases that follow already have their Ki on record.
[Phe(3,5-F2)]IKL [analog of 11 with 3,5-di-F substitution of the phenyl] ... 82 µM
MIKLFSLKQQ [UBC12 peptide 3] ... 6 µM
[Phe(4-Cl)]IKL [compound 15 (11 with Cl at the para position of the phenyl ring)] ... 71 µM
[hPhe]IKL [compound 12 (tetrapeptide 9 with Met1 replaced by homophenylalanine)] ... 313 µM

Now, please, on to the next binder.
Please fill in: Ki reported for [5‑Cl‑benzothiazol‑2‑yl side chain]IKL (not fully specified; reading uncertain) [compound 25 (24 with 5-Cl on the benzothiazol-2-yl)] = 2.5 µM
